- test-protocol: Binding affinity to N-terminal His-tagged DC-SIGN CRD (194 to 331 residues) (unknown origin) expressed in Escherichia coli BL21 assessed as dissociation constant by HSQC-NMR spectrum analysis
quantity-name: Kd (µM)

Example entries and their recorded answers appear below.
chemical-structure: CN(C)C(=O)c1c[nH]c2c(F)cccc2c1=O
scale-unit: µM
Kd: 400
--
chemical-structure: CN(C)C(=O)c1c[nH]c2cc(N(C)C)ccc2c1=O
scale-unit: µM
Kd: 500

A. CCOC(=O)c1cc(=O)c2cccc(F)c2[nH]1
B. CCOC(=O)c1cnc2ccccc2c1O
Please tell me which of the two, A or B , has the higher reported Kd value. State your choice using its label.
A

---

- test-protocol: Binding affinity to DC-SIGN ECD (66 to 404 residue) (unknown origin) expressed in Escherichia coli BL21 assessed as dissociation constant by STD reporter assay based NMR spectroscopy analysis
quantity-name: Kd (µM)

Example entries and their recorded answers appear below.
chemical-structure: CN(C)C(=O)c1c[nH]c2ccc(F)cc2c1=O
quantity-name: Kd
experimental-result: 2900
//
chemical-structure: CCOC(=O)c1cc(=O)c2cccc(F)c2[nH]1
quantity-name: Kd
experimental-result: 500
//
chemical-structure: CCOC(=O)c1cc(=O)c2cccc(C(=O)OCC)c2[nH]1
quantity-name: Kd
experimental-result: 600

A. O=C(O)c1c[nH]c2ccc(S(=O)(=O)N3CCCCC3)cc2c1=O
B. CCOC(=O)c1c[nH]c2ccc(N(C)C)cc2c1=O
C. O=C(O)c1cnc2ccccc2c1O
D. CCOC(=O)c1c[nH]c2c(C(=O)OCC)cccc2c1=O
E. CCOC(=O)c1cnc2ccccc2c1O
Could you please sort these 5 entries by Kd from high to low? Form entry: labels listed in requested order.
C, A, B, E, D
(C: 2200 µM, A: 500 µM, B: 300 µM, E: 200 µM, D: 100 µM)

a. CN(C)C(=O)c1c[nH]c2cc(N(C)C)ccc2c1=O
b. O=c1c(S(=O)(=O)c2ccccc2)c[nH]c2cc(F)ccc12
Hi, I'm comparing two records. Which one has the lower Kd, a or b ? State your choice using its label.
a
(a: 400 µM, b: 1900 µM)

Values compiled from BindingDB's records for PubMed 35707152.
